- System: J558L
- experimental-protocol: Inhibition of proteasome in mouse J558L cell lysate assessed as cleavage of Suc-leu-leu-val-Tyr-AMC at 1000 nM after 15 mins
- Parameters: scale not given: the % may be the effect or the level left
attribute-measured: Activity (%)

The examples below pair each entry with its known result.
> print(dat)
                                   compound  attribute.measured  u  recorded.measurement
1  CC(C)C[C@@H](C=O)NC(=O)[C@H](CC(C)C)NC(=O)[C@H](CC(C)C)NC(=O)OCc1ccccc1 (stereo in doubt; 2)            Activity  %                    15
2  CC(C)C[C@H](NC(=O)[C@@H](CC(C)C)NC(=O)OCc1ccccc1)C(=O)N[C@@H](C=O)CC(C)C            Activity  %                   102
3  CC(C)C[C@H](C=O)NC(=O)[C@@H](CC(C)C)NC(=O)[C@@H](CC(C)C)NC(=O)OCc1ccccc1            Activity  %                    58
4  CC(C)CC(NC(=O)[C@@H](CC(C)C)NC(=O)OCc1ccccc1)C(=O)N[C@H](C=O)CC(C)C (single isomer, unassigned; (+))            Activity  %                   114
5  CC(C)CC(NC(=O)[C@@H](CC(C)C)NC(=O)OCc1ccccc1)C(=O)N[C@H](C=O)CC(C)C (stereo in doubt)            Activity  %                    30
6  CC(C)C[C@@H](C=O)NC(=O)[C@H](CC(C)C)NC(=O)[C@H](CC(C)C)NC(=O)OCc1ccccc1 (stereo in doubt)            Activity  %                    71

1. CC(C)CC(NC(=O)[C@H](CC(C)C)NC(=O)OCc1ccccc1)C(=O)N[C@@H](C=O)CC(C)C (stereo in doubt; (-))
2. CC(C)CC(NC(=O)[C@H](CC(C)C)NC(=O)OCc1ccccc1)C(=O)N[C@@H](C=O)CC(C)C (stereo in doubt; (+))
3. CC(C)C[C@@H](C=O)NC(=O)[C@@H](CC(C)C)NC(=O)[C@H](CC(C)C)NC(=O)OCc1ccccc1
Request: List by increasing Activity. In your reply, arrange the labels in the requested order.
Result: 3, 1, 2

----------
- System: EMT6
- experimental-protocol: Inhibition of proteasome in mouse EMT6 cell lysate assessed as cleavage of Suc-leu-leu-val-Tyr-AMC at 100 nM after 30 mins
- Design: scale not given: the % may be the effect or the level left
attribute-measured: Activity (%)

> print(dat)
                                   molecule  study.target  recorded.measurement
1  CC(C)CC(NC(=O)[C@@H](CC(C)C)NC(=O)OCc1ccccc1)C(=O)N[C@H](C=O)CC(C)C (stereo in doubt)          EMT6                    85

A. CC(C)CC(NC(=O)[C@H](CC(C)C)NC(=O)OCc1ccccc1)C(=O)N[C@@H](C=O)CC(C)C (stereo in doubt; (+))
B. CC(C)C[C@@H](C=O)NC(=O)[C@@H](CC(C)C)NC(=O)[C@H](CC(C)C)NC(=O)OCc1ccccc1
Request: Min Activity? A | B To answer, give the label that identifies your chosen option.
Result: B

P. CC(C)CC(NC(=O)[C@H](CC(C)C)NC(=O)OCc1ccccc1)C(=O)N[C@@H](C=O)CC(C)C (stereo in doubt; (-))
Q. CC(C)C[C@@H](C=O)NC(=O)[C@H](CC(C)C)NC(=O)[C@H](CC(C)C)NC(=O)OCc1ccccc1 (stereo in doubt; 2)
Request: In the pair P and Q , the larger recorded Activity belongs to which? Your answer should be the label attached to the chosen record.
Result: P

----------
- Tested on: EMT6
- experimental-protocol: Inhibition of proteasome in mouse EMT6 cell lysate assessed as cleavage of Suc-leu-leu-val-Tyr-AMC at 100 nM after 15 mins
- Design: scale not given: the % may be the effect or the level left
attribute-measured: Activity (%)

> print(dat)
                                   compound  recorded.measurement
1  CC(C)CC(NC(=O)[C@H](CC(C)C)NC(=O)OCc1ccccc1)C(=O)N[C@@H](C=O)CC(C)C (stereo in doubt; (-))                    95
2  CC(C)CC(NC(=O)[C@@H](CC(C)C)NC(=O)OCc1ccccc1)C(=O)N[C@H](C=O)CC(C)C (single isomer, unassigned; (+))                    97
3  CC(C)CC(NC(=O)[C@H](CC(C)C)NC(=O)OCc1ccccc1)C(=O)N[C@@H](C=O)CC(C)C (stereo in doubt; (+))                   110

a. CC(C)C[C@H](C=O)NC(=O)[C@@H](CC(C)C)NC(=O)[C@@H](CC(C)C)NC(=O)OCc1ccccc1
b. CC(C)C[C@@H](C=O)NC(=O)[C@H](CC(C)C)NC(=O)[C@H](CC(C)C)NC(=O)OCc1ccccc1 (stereo in doubt; 2)
Request: # argmax over Activity for candidates a and b State your choice using its label.
Result: a
(a: 90%, b: 20%)

----------
- Tested on: J558L
- experimental-protocol: Inhibition of proteasome in mouse J558L cell lysate assessed as cleavage of Suc-leu-leu-val-Tyr-AMC at 1000 nM after 60 mins
- Parameters: scale not given: the % may be the effect or the level left
attribute-measured: Activity (%)

Look over these answered cases.
> print(dat)
                                   molecule  attribute.measured  recorded.measurement
1  CC(C)C[C@@H](C=O)NC(=O)[C@@H](CC(C)C)NC(=O)[C@H](CC(C)C)NC(=O)OCc1ccccc1            Activity                    38
2  CC(C)CC(NC(=O)[C@H](CC(C)C)NC(=O)OCc1ccccc1)C(=O)N[C@@H](C=O)CC(C)C (stereo in doubt; (-))            Activity                    77
3  CC(C)C[C@H](NC(=O)[C@@H](CC(C)C)NC(=O)OCc1ccccc1)C(=O)N[C@@H](C=O)CC(C)C            Activity                    99

P. CC(C)C[C@@H](C=O)NC(=O)[C@H](CC(C)C)NC(=O)[C@H](CC(C)C)NC(=O)OCc1ccccc1 (stereo in doubt)
Q. CC(C)C[C@@H](C=O)NC(=O)[C@H](CC(C)C)NC(=O)[C@H](CC(C)C)NC(=O)OCc1ccccc1 (stereo in doubt; 2)
Request: Endpoint returns whichever of P and Q has the numerically higher Activity. Respond with the label that goes with your answer.
Result: P
(P: 74%, Q: 44%)

----------
- experimental-protocol: Inhibition of 20S proteasome from human erythrocyte
Square brackets hold non-standard residues; d marks the D form. Peptide text beside a SMILES is read from it. * marks the point of attachment. 1Nal = N[C@@H](Cc1cccc2ccccc12)C(=O)O; 2Nal = N[C@@H](Cc1ccc2ccccc2c1)C(=O)O; Cbz = O=C(OCc1ccccc1)*
attribute-measured: Ki (pM)

compound	Ki, pM
CC(C)C[C@@H](C=O)NC(=O)[C@H](CC(C)C)NC(=O)[C@H](CC(C)C)NC(=O)OCc1ccccc1 (stereo in doubt; 2)	4000

a. CC(C)C[C@@H](C=O)NC(=O)[C@H](Cc1cccc2ccccc12)NC(=O)[C@H](Cc1ccc2ccccc2c1)NC(=O)OCc1ccccc1 (Cbz-[2Nal]-[1Nal]-Leu-aldehyde)
b. CC(C)C[C@H](NC(=O)[C@H](Cc1ccccc1)NC(=O)c1cnccn1)B(O)O
Request: Determine, for a and b , which has the greater value of Ki. Indicate which entry you chose by stating its label.
Result: b
(b: 620 pM, a: 15 pM)

----------
- Tested on: EMT6
- experimental-protocol: Inhibition of proteasome in mouse EMT6 cell lysate assessed as cleavage of Suc-leu-leu-val-Tyr-AMC at 1000 nM after 60 mins
- Parameters: scale not given: the % may be the effect or the level left
attribute-measured: Activity (%)

> print(dat)
                                   compound  recorded.measurement
1  CC(C)CC(NC(=O)[C@H](CC(C)C)NC(=O)OCc1ccccc1)C(=O)N[C@@H](C=O)CC(C)C (stereo in doubt; (-))                    53
2  CC(C)C[C@@H](C=O)NC(=O)[C@H](CC(C)C)NC(=O)[C@H](CC(C)C)NC(=O)OCc1ccccc1 (stereo in doubt)                    50
3  CC(C)C[C@H](C=O)NC(=O)[C@@H](CC(C)C)NC(=O)[C@@H](CC(C)C)NC(=O)OCc1ccccc1                    78
4  CC(C)CC(NC(=O)[C@H](CC(C)C)NC(=O)OCc1ccccc1)C(=O)N[C@@H](C=O)CC(C)C (stereo in doubt; (+))                   106

P. CC(C)CC(NC(=O)[C@@H](CC(C)C)NC(=O)OCc1ccccc1)C(=O)N[C@H](C=O)CC(C)C (single isomer, unassigned; (+))
Q. CC(C)CC(NC(=O)[C@@H](CC(C)C)NC(=O)OCc1ccccc1)C(=O)N[C@H](C=O)CC(C)C (stereo in doubt)
R. CC(C)C[C@@H](C=O)NC(=O)[C@@H](CC(C)C)NC(=O)[C@H](CC(C)C)NC(=O)OCc1ccccc1
S. CC(C)C[C@@H](C=O)NC(=O)[C@H](CC(C)C)NC(=O)[C@H](CC(C)C)NC(=O)OCc1ccccc1 (stereo in doubt; 2)
Request: Put the items in order so that reported Activity rises from first to last. Your answer should be the labels, listed in the requested order.
Result: R, S, Q, P
(R: 13%, S: 19%, Q: 67%, P: 99%)
